# measured target: Polyunsaturated fatty acid 5-lipoxygenase (Homo sapiens, UniProt P09917)
# protocol text: Inhibition of LTB4 production in calcium ionophore A-23187-stimulated human whole blood
# Format: functional, tissue-based
Field: IC50. Provide a value for each of the compounds that follow.
Give your result in nM as a bare value.

Report IC50 for `O=c1cc(-c2ccc(F)cc2)c2ccc(COc3cc(F)cc(C(O)(C(F)(F)F)C(F)(F)F)c3)cc2o1` please. 150

Report IC50 for `O=c1cc(-c2ccoc2)c2ccc(Sc3cc(F)cc(C(O)(C(F)(F)F)C(F)(F)F)c3)cc2o1` please. 52

Report IC50 for `O=c1cc(-c2ccccc2)c2ccc(Sc3cc(F)cc(C(O)(C(F)(F)F)C(F)(F)F)c3)cc2o1` please. 88

Report IC50 for `O=c1cc(-c2ccoc2)c2ccc(COc3cc(F)cc([C@]4(O)C[C@H]5CO[C@@H](C4)O5)c3)cc2o1` please. 48

* * *

# measured target: Polyunsaturated fatty acid 5-lipoxygenase (Homo sapiens, UniProt P09917)
# protocol text: Inhibition of human 5-LO
quantity measured: pIC50
Entry type: numeric. Quantity: pIC50, the -log10 of concentration in molar units.

What value of pIC50 on Polyunsaturated fatty acid 5-lipoxygenase (Homo sapiens, UniProt P09917) does `O=c1cc(-c2ccccc2)c2ccc(Sc3cc(F)cc(C(O)(C(F)(F)F)C(F)(F)F)c3)cc2o1` have? 7.59

What value of pIC50 on Polyunsaturated fatty acid 5-lipoxygenase (Homo sapiens, UniProt P09917) does `O=c1cc(-c2ccoc2)c2ccc(COc3cc(F)cc([C@]4(O)C[C@H]5CO[C@@H](C4)O5)c3)cc2o1` have? 6.70

What value of pIC50 on Polyunsaturated fatty acid 5-lipoxygenase (Homo sapiens, UniProt P09917) does `O=c1cc(-c2ccoc2)c2ccc(Sc3cc(F)cc(C(O)(C(F)(F)F)C(F)(F)F)c3)cc2o1` have? 8.05

What value of pIC50 on Polyunsaturated fatty acid 5-lipoxygenase (Homo sapiens, UniProt P09917) does `O=c1cc(-c2ccc(F)cc2)c2ccc(COc3cc(F)cc(C(O)(C(F)(F)F)C(F)(F)F)c3)cc2o1` have? 7.26

* * *

# protocol text: Cmax in rat at 20 mg/kg, po
# Assay type: ADME, organism-based
# Set-up: dose 20 mg/kg, route oral
# conditions: in vivo
quantity measured: Cmax (µM)
Give your result in µM as a bare value.

Report Cmax for `O=C([O-])/C=C(/c1ccc(F)cc1)c1ccc(Sc2cc(F)cc(C(O)(C(F)(F)F)C(F)(F)F)c2)cc1[O-].[Na+].[Na+]` please. 16

* * *

# protocol text: Oral bioavailability in rat at 20 mg/kg, po
# Format: ADME, organism-based
# conditions: in vivo
quantity measured: bioavailability (%)
Give your result in % as a bare value.

Report bioavailability for `O=C([O-])/C=C(/c1ccc(F)cc1)c1ccc(Sc2cc(F)cc(C(O)(C(F)(F)F)C(F)(F)F)c2)cc1[O-].[Na+].[Na+]` please. 100

* * *

# measured target: Polyunsaturated fatty acid 5-lipoxygenase (Homo sapiens, UniProt P09917)
# Sequence (P09917 whole entry): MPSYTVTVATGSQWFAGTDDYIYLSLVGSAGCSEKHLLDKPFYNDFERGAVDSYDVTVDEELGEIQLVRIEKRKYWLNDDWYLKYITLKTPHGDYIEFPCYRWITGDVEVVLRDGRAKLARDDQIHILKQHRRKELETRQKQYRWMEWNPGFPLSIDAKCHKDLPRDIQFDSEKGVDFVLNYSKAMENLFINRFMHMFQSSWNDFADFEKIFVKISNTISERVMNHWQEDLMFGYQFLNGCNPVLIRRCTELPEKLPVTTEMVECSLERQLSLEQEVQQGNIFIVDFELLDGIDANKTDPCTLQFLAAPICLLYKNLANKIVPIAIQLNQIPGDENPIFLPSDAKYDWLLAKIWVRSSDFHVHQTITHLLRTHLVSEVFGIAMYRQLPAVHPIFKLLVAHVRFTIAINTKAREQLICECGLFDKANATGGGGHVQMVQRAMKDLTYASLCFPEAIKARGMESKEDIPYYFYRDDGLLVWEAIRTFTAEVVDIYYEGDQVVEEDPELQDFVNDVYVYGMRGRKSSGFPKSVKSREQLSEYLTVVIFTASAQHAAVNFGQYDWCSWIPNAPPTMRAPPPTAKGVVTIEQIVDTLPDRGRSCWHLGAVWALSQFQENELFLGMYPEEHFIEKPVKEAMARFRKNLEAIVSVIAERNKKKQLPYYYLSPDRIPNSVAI
# protocol text: Inhibition of LTB4 production in calcium ionophore A-23187-stimulated human polymorphonuclear leukocyte
# Assay type: functional
quantity measured: IC50 (nM)
Give your result in nM as a bare value.

Report IC50 for `O=c1cc(-c2ccoc2)c2ccc(Sc3cc(F)cc(C(O)(C(F)(F)F)C(F)(F)F)c3)cc2o1` please. 0.8

Report IC50 for `O=c1cc(-c2ccoc2)c2ccc(COc3cc(F)cc([C@]4(O)C[C@H]5CO[C@@H](C4)O5)c3)cc2o1` please. 3

Report IC50 for `O=c1cc(-c2ccccc2)c2ccc(Sc3cc(F)cc(C(O)(C(F)(F)F)C(F)(F)F)c3)cc2o1` please. 0.5

Report IC50 for `O=c1cc(-c2ccc(F)cc2)c2ccc(COc3cc(F)cc(C(O)(C(F)(F)F)C(F)(F)F)c3)cc2o1` please. 1.9
